biological target: Siderocalin (Scn; a.k.a. Lcn2, Ngal, 24p3) (Homo sapiens, UniProt P80188); test: intrinsic fluorescence quenching titration; format: binding; settings: pH 7.4, TBS, 5% DMSO, 32 μg/mL ubiquitin, 100 nM protein; ferric complex
Sequence (P80188 21-198): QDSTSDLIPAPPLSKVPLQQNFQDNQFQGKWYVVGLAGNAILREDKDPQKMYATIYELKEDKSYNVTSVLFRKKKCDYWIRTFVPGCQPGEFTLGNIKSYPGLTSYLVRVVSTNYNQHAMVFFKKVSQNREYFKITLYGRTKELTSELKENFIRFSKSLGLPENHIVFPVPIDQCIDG
ENDPOINT LABEL: Kd

Q: Consider the substance Fe^IIICMB (n = 3) and give its measured Kd.
Result: > 9 µM
